Cited source for all entries: PubChem BioAssay (NCI)

- System: A498 renal
- Test protocol: NCI tumour cell line growth inhibition, 48 h
Each entry below lists one item and its recorded GI50 value.

Compound: N=c1ccc2nc3ccc(N)cc3sc-2c1
GI50: 26200 nM
//
Compound: COc1cc(OCc2cccc(-c3ccccc3)c2C)cc(OC)c1CN1CCCCC1C(=O)NCCOCCOCCN (stereo not drawn)
GI50: 2270 nM
//
Compound: ClCc1cccc(Cn2cnc3c(Cl)nc(Cl)nc32)c1
GI50: 2420 nM

* * *

- System: NCI/ADR-RES ovarian
- Test protocol: NCI tumour cell line growth inhibition, 48 h

Compound: CN(Cc1ccc(F)cc1)c1ccc(CO)c(Cl)c1
Readout relation: >
TGI (µM): 64.3
--
Compound: COc1ccc2oc(S(=O)(=O)N3CC(CCl)c4ccc(N)cc43)cc2c1 (stereo not given)
Readout relation: >
TGI (µM): 72
--
Compound: CC(C)(C)C(=O)Oc1ccc(/C=C/C(=O)c2ccc(OC(=O)C(C)(C)C)cc2)cc1
Readout relation: >
TGI (µM): 100
--
Compound: N#CCCN(CCC#N)c1ccc(/C=C2\N=C(c3ccccc3)N(c3ccc(C(=O)O)cc3)C2=O)cc1
Readout relation: >
TGI (µM): 100
--
Compound: N=c1ccc2nc3ccc(N)cc3sc-2c1
Readout relation: =
TGI (µM): 10.7
--
Compound: CN(C)N1C(=O)SCC(c2ccccc2)(c2ccccc2)C1=O
Readout relation: >
TGI (µM): 100
--
Compound: c1ccc(-c2nc3n(c2-c2ccc4c(c2)OCO4)CCC3)nc1
Readout relation: =
TGI (µM): 9.59
--
Compound: COc1ccc(-c2cnnn2-c2nonc2-n2cccc2)cc1OC
Readout relation: =
TGI (µM): 5.99
--
Compound: Cc1ccc(S(=O)(=O)CNC(=O)C(O)(O)C(F)(F)F)cc1
Readout relation: >
TGI (µM): 100
--
Compound: COC(=O)c1c(CC(Cc2ccc3c(c2)CCCC3)C(=O)O)ccc2c1CCCC2 (stereo not given)
Readout relation: =
TGI (µM): 34.4
--
Compound: COc1ccc(C2=NC(=O)NC2c2ccc(OC)cc2)cc1 (stereo not given)
Readout relation: =
TGI (µM): 58.5
--
Compound: O=c1[nH]ncc2[nH]c3c4ccccc4ccc3c12
Readout relation: >
TGI (µM): 100
--
Compound: COc1ccc(-c2nc(-c3nc4cc(Cl)c(F)cc4[nH]3)c3ccccn23)cc1
Readout relation: >
TGI (µM): 100
--
Compound: C[C@H]1C2Cc3cc(O)ccc3[C@@]1(C)CCN2CCc1ccc(N)cc1
Readout relation: =
TGI (µM): 63.2
--
Compound: COc1ccc2c(c1)CN([C@@H](C)[C@H]1CC[C@H]3[C@@H]4CC[C@H]5C[C@@H](O)CC[C@]5(C)[C@H]4CC[C@]13C)CO2
Readout relation: =
TGI (µM): 18.6
--
Compound: NC(=O)c1cccnc1
Readout relation: >
TGI (µM): 100
--
Compound: O=c1nc2ccc([N+](=O)[O-])cc2[n+]([O-])[nH]1
Readout relation: >
TGI (µM): 100
--
Compound: CCCCCCCCC/C=C1/CC(CO)(COC(=O)CC(C(C)C)C(C)C)OC1=O (stereo not given)
Readout relation: =
TGI (µM): 28.1
--
Compound: CCCC1(CN2c3ccccc3Sc3ccc(Cl)cc32)CCN(CC)C1 (stereo not given)
Readout relation: =
TGI (µM): 3.36
--
Compound: COc1ccc(-c2c(-c3ccccc3)c(C)c3ccccn23)cc1
Readout relation: >
TGI (µM): 100
--
Compound: C=CC(C)(C)n1cc(C2=C(O)C(=O)C(c3cn(C(C)(C)C=C)c4ccccc34)=C(O)C2=O)c2ccccc21
Readout relation: =
TGI (µM): 6.72
--
Compound: CC(=O)c1cccc(NC(=O)C(=O)c2c(O)c3ccccc3oc2=O)c1
Readout relation: >
TGI (µM): 100
--
Compound: COc1ccc(/C=C2/C(=O)N(C(=O)c3ccccc3O)N=C2C)cc1
Readout relation: =
TGI (µM): 14.1
--
Compound: CC(C)(C)[Si](C)(C)OC1[C@@H](CNC(N)=O)O[C@@H](n2cnc3c(NC(=O)Nc4ccccc4)ncnc32)[C@H]1O[Si](C)(C)C(C)(C)C (stereo not given in full)
Readout relation: =
TGI (µM): 9.81
--
Compound: CC(=O)/C=C/c1ccc(Nc2c3ccccc3nc3occ(Cl)c23)cc1
Readout relation: =
TGI (µM): 5.88
--
Compound: C=C1C(=O)O[C@H]2[C@H]1CC/C(COC(=O)NCc1ccc(Cn3c(=O)sn(CCCCC)c3=O)cc1)=C\CC[C@@]1(C)O[C@@H]21
Readout relation: =
TGI (µM): 46.5
--
Compound: CC(=O)c1ccc2c(c1)N(CCCN1CCN(CCO)CC1)c1ccccc1S2
Readout relation: =
TGI (µM): 12.9
--
Compound: Cc1nc2ccc(S(=O)(=O)NS(=O)(=O)c3ccc(-c4ccccc4)cc3)cc2c(=O)n1NS(=O)(=O)c1ccc(-c2ccccc2)cc1
Readout relation: >
TGI (µM): 100
--
Compound: COc1cccc(CNc2ncnc3c2ncn3C2OC(CO)C(O)C2O)c1O (stereo not given)
Readout relation: >
TGI (µM): 100
--
Compound: O=[N+]([O-])c1cc([As](Br)c2ccc(O)c([N+](=O)[O-])c2)ccc1O
Readout relation: =
TGI (µM): 8.81
--
Compound: CC[C@@H](CCCCC1CC[C@H]2CC(=O)C[C@@H]12)OC (stereo not given in full)
Readout relation: >
TGI (µM): 100
--
Compound: COc1ccc(-c2c(C#N)c(N)nc(N3CCOCC3)c2C#N)cc1
Readout relation: =
TGI (µM): 87.3
--
Compound: O=C(O)c1nc2ccc(C(F)(F)F)cc2nc1Nc1ccc(Cl)c(Cl)c1
Readout relation: =
TGI (µM): 19.7
--
Compound: O=C1C[C@@]23CCC4(CC2CCC[C@H]3O1)OCCO4 (stereo not given in full)
Readout relation: >
TGI (µM): 100
--
Compound: COc1cc(C(=O)Oc2c(C(C)=O)sc3c2c(=O)n(-c2ccccc2)c(=S)n3-c2ccccc2)cc(OC)c1OC
Readout relation: =
TGI (µM): 43.5
--
Compound: CCOC(=O)C(=CNc1ccc(N(C2=NCC(C)S2)c2ccc(F)c(Cl)c2)cc1)C(=O)OCC (stereo not given)
Readout relation: =
TGI (µM): 33.7
--
Compound: COc1cc(OCc2cccc(-c3ccccc3)c2C)cc(OC)c1CN1CCCCC1C(=O)NCCOCCOCCN (stereo not given)
Readout relation: =
TGI (µM): 27.2
--
Compound: O=[N+]([O-])C(/C(Cl)=C(\Cl)Br)=C(/Cl)SCc1ccccc1
Readout relation: =
TGI (µM): 8.62
--
Compound: CC(Oc1ccc(Oc2cnc3ccc(Cl)cc3n2)cc1)C(=O)O (stereo not given)
Readout relation: >
TGI (µM): 100
--
Compound: CC(/C=C/C(O)=C1/C(=O)CNC1=O)=C\[C@@H](C)[C@H]1O[C@@]2(C)O[C@H](C(=O)[C@@H]3O[C@@]32C)[C@@H]1C
Readout relation: =
TGI (µM): 63.7
